Source listed as PubChem BioAssay AID720673.

Molecular target: Botulinum neurotoxin type A light chain (Clostridium botulinum A ATCC 3502)
Assay: BoNT/A light chain protease inhibitors, dose response, biochemical, powder set 03 (AID 720673)
Settings: BoNT/A LC protease, multiplex microsphere substrate cleavage assay
Calls of active or inactive are those of the source. How the calls were made is not given here.
Hi there, use one of these labels in your reply, thanks! class 1 (active), class 0 (inactive)

Called result for `COc1ccc(-c2cn3nc(-c4ccc(OC)cc4)c(-c4ccc(OC)cc4)nc3n2)cc1` class 1

Called result for `Clc1ccc(-c2cn3nc(-c4ccccc4)c(-c4ccccc4)nc3n2)c(Cl)c1` class 0

Called result for `CCOC(=O)Nc1ccc2nc(-c3cccs3)c(-c3cccs3)nc2c1` class 0

Called result for `Fc1ccc(-c2nc3nc(-c4ccc(OC(F)(F)F)cc4)cn3nc2-c2ccc(F)cc2)cc1` class 1

Called result for `CCCCOC(=O)Nc1ccc2nc(-c3ccccc3)c(-c3ccccc3)nc2c1` class 0

Called result for `CCCCOC(=O)Nc1ccc2nc(-c3cccs3)c(-c3cccs3)nc2c1` class 0

Called result for `CC(=O)Nc1ccc2nc(-c3ccccc3)c(-c3ccccc3)nc2c1` class 0

Called result for `CCCNC(=O)Nc1ccc2nc(-c3ccccc3)c(-c3ccccc3)nc2c1` class 0

Called result for `O=C(Nc1ccc2nc(-c3ccccc3)c(-c3ccccc3)nc2c1)C1CCCCC1` class 0

Called result for `COc1ccccc1-c1cn2nc(-c3ccc(C)cc3)c(-c3ccc(C)cc3)nc2n1` class 1

Called result for `COc1ccc(-c2cn3nc(-c4ccc(C)cc4)c(-c4ccc(C)cc4)nc3n2)c(OC)c1` class 1
